Origin of measurements: ChEMBL document CHEMBL1145498

For each of the compounds below, state its ΔTm.
# value in °C; strip the unit string

Param request: ΔTm | system Serine/threonine-protein kinase VRK2 (Homo sapiens) (UniProt Q86Y07) | item "O=C1C(Cl)=C(N2C(=O)CCC2=O)C(=O)c2ccccc21" -0.3

Param request: ΔTm | system Serine/threonine-protein kinase VRK2 (Homo sapiens) (UniProt Q86Y07) | item "Ic1cccc(CSc2nnc(-c3ccncc3)o2)c1" -0.3

Param request: ΔTm | system Serine/threonine-protein kinase VRK2 (Homo sapiens) (UniProt Q86Y07) | item "Cc1cc2ncc(-c3ccccc3)nc2cc1C" 0.4

Param request: ΔTm | system Serine/threonine-protein kinase VRK2 (Homo sapiens) (UniProt Q86Y07) | item "CC(C)n1cnc2c(NCc3ccccc3)nc(NCCCO)nc21" 1.2

Param request: ΔTm | system Serine/threonine-protein kinase VRK2 (Homo sapiens) (UniProt Q86Y07) | item "CC[C@H](CO)Nc1nc(NCc2ccccc2)c2ncn(C(C)C)c2n1" 2.1

Param request: ΔTm | system Serine/threonine-protein kinase VRK2 (Homo sapiens) (UniProt Q86Y07) | item CN(C)CC1CCn2c(c(C3=C(c4c[nH]c5ccccc45)C(=O)NC3=O)c3ccccc32)C1 (stereo not given) 0.7

Param request: ΔTm | system Serine/threonine-protein kinase VRK2 (Homo sapiens) (UniProt Q86Y07) | item "O=C1c2ccccc2-c2n[nH]c3cccc1c23" 2.6

Param request: ΔTm | system Serine/threonine-protein kinase VRK2 (Homo sapiens) (UniProt Q86Y07) | item "COC1=C2C[C@@H](C)C[C@H](OC)[C@H](O)[C@@H](C)/C=C(\C)[C@H](OC(N)=O)[C@@H](OC)/C=C\C=C(/C)C(=O)NC(=CC1=O)C2=O" 0.2

Param request: ΔTm | system Serine/threonine-protein kinase VRK2 (Homo sapiens) (UniProt Q86Y07) | item "Cc1ccc(NC(=O)c2cccc(N(C)C)c2)cc1NC(=O)c1ccc(O)cc1" 0.2

Param request: ΔTm | system Serine/threonine-protein kinase VRK2 (Homo sapiens) (UniProt Q86Y07) | item "N#C/C(=C(/N)Sc1ccc(N)cc1)c1ccccc1C(F)(F)F" 0.1

----------
For each of the compounds below, state its ΔTm.
# answer = value followed by unit

Param request: ΔTm | system 5'-AMP-activated protein kinase catalytic subunit alpha-2 (Homo sapiens) (UniProt P54646) | item O=C(Nc1cccc(Nc2nccc(Nc3cccc(C(F)(F)F)c3)n2)c1)C1CC1 [ANILINOPYRIMIDINE1] 1.5 °C

Param request: ΔTm | system 5'-AMP-activated protein kinase catalytic subunit alpha-2 (Homo sapiens) (UniProt P54646) | item "O=C(O)Cc1ccc(O)c([N+](=O)[O-])c1" 0.1 °C

Param request: ΔTm | system 5'-AMP-activated protein kinase catalytic subunit alpha-2 (Homo sapiens) (UniProt P54646) | item "COc1cc2c(cc1OC)-c1n[nH]c(Nc3cccc(F)c3)c1C2" -0.3 °C

Param request: ΔTm | system 5'-AMP-activated protein kinase catalytic subunit alpha-2 (Homo sapiens) (UniProt P54646) | item "CN(C)S(=O)(=O)c1ccc2c(c1)/C(=C/c1cc3c([nH]1)CCCC3)C(=O)N2" 6.7 °C

Param request: ΔTm | system 5'-AMP-activated protein kinase catalytic subunit alpha-2 (Homo sapiens) (UniProt P54646) | item C[S+]([O-])c1ccc(-c2nc(-c3ccc(F)cc3)c(-c3ccncc3)[nH]2)cc1 (configuration not stated) [SB-203580] -0.9 °C

Param request: ΔTm | system 5'-AMP-activated protein kinase catalytic subunit alpha-2 (Homo sapiens) (UniProt P54646) | item "O=c1cc(N2CCOCC2)oc2c(-c3ccccc3)cccc12" -0.9 °C

Param request: ΔTm | system 5'-AMP-activated protein kinase catalytic subunit alpha-2 (Homo sapiens) (UniProt P54646) | item "NC(=O)c1ccc(-c2nc(-c3ccc4c(c3)OCCO4)c(-c3ccccn3)[nH]2)cc1" -0.7 °C

----------
target: Dual specificity protein kinase CLK2 (Homo sapiens)
Label class 0 if ΔTm falls below 0.4 °C; label class 1 in every other case.

Check the entry "N#C/C(=C\c1ccc(O)c(O)c1)C(=O)Nc1ccccc1" : does ΔTm equal or exceed 0.4 °C? class 1

Check the entry "CCN(CC)CCNC(=O)c1c(C)[nH]c(/C=C2\C(=O)Nc3ccc(Cl)cc32)c1C" : does ΔTm equal or exceed 0.4 °C? class 1

Check the entry "N#CCCc1ccc2c(c1)-c1[nH]c3ccc([N+](=O)[O-])cc3c1CC(=O)N2" : does ΔTm equal or exceed 0.4 °C? class 1

Check the entry "COc1ccc(COc2ccc(Cc3cnc(N)nc3N)cc2OC)cc1" : does ΔTm equal or exceed 0.4 °C? class 0

Check the entry "COc1cc2ncnc(Nc3cccc(Br)c3)c2cc1OC" : does ΔTm equal or exceed 0.4 °C? class 1

Check the entry "O=c1c(-c2ccc(O)cc2)coc2cc(O)cc(O)c12" : does ΔTm equal or exceed 0.4 °C? class 1

Check the entry CSc1nc(-c2ccc(F)cc2)c(-c2ccnc(NC(C)c3ccccc3)c2)[nH]1 (racemic) : does ΔTm equal or exceed 0.4 °C? class 0

Check the entry "Cc1cc2ncc(-c3ccccc3)nc2cc1C" : does ΔTm equal or exceed 0.4 °C? class 1

Check the entry "O=C(O)c1cc(NCc2cc(O)ccc2O)ccc1O" : does ΔTm equal or exceed 0.4 °C? class 0

Check the entry "Cc1ccc(NC(=O)c2cccc(N(C)C)c2)cc1NC(=O)c1ccc(O)cc1" : does ΔTm equal or exceed 0.4 °C? class 0

Check the entry "O=C1Cc2c([nH]c3ccc(Br)cc23)-c2ccccc2N1" : does ΔTm equal or exceed 0.4 °C? class 0

Check the entry COc1ccc2c(c[n+](C)c3c4cc5c(cc4ccc23)OCO5)c1OC [CHELERYTHRINE CHLORIDE] : does ΔTm equal or exceed 0.4 °C? class 0

Check the entry "NC1=NC(=O)/C(=C2\CCNC(=O)c3[nH]c(Br)cc32)N1" : does ΔTm equal or exceed 0.4 °C? class 1

Check the entry "CN(c1cccnc1)c1cc2c(Nc3ccc(F)c(Cl)c3)c(C#N)cnc2cn1" : does ΔTm equal or exceed 0.4 °C? class 1

Check the entry "C#Cc1cccc(Nc2ncnc3cc(OCCOC)c(OCCOC)cc23)c1" : does ΔTm equal or exceed 0.4 °C? class 0

Check the entry "O=c1cc(N2CCOCC2)oc2c1ccc1ccccc12" : does ΔTm equal or exceed 0.4 °C? class 1

Check the entry "O=C1Cc2c([nH]c3ccc([N+](=O)[O-])cc23)-c2ccccc2N1" : does ΔTm equal or exceed 0.4 °C? class 1

Check the entry "O=[N+]([O-])c1ccc(-c2nc(-c3ccc(F)cc3)c(-c3ccncc3)[nH]2)cc1" : does ΔTm equal or exceed 0.4 °C? class 0

Check the entry "COc1ccc(Cl)cc1NC(=O)Nc1cc(C)nc2ccccc12" : does ΔTm equal or exceed 0.4 °C? class 1

Check the entry "C[C@@H](N)[C@H]1CC[C@H](C(=O)Nc2ccncc2)CC1" : does ΔTm equal or exceed 0.4 °C? class 0

Check the entry "O=C(O)c1cc(N(Cc2ccccc2O)Cc2cc(O)ccc2O)ccc1O" : does ΔTm equal or exceed 0.4 °C? class 1

Check the entry "O=c1cc(-c2ccc(O)cc2)oc2cc(O)cc(O)c12" : does ΔTm equal or exceed 0.4 °C? class 1

Check the entry "CC(C)c1cc(/C=C(\C#N)C(=O)NCCCc2ccccc2)cc(C(C)C)c1O" : does ΔTm equal or exceed 0.4 °C? class 1

Check the entry C[S+]([O-])c1ccc(-c2nc(-c3ccc(F)cc3)c(-c3ccncc3)[nH]2)cc1 (configuration not stated) : does ΔTm equal or exceed 0.4 °C? class 0

Check the entry "O=C(Nc1cccc(Nc2nccc(Nc3cccc(C(F)(F)F)c3)n2)c1)C1CC1" : does ΔTm equal or exceed 0.4 °C? class 1

Check the entry "O=C1Nc2ccc(S(=O)(=O)O)cc2/C1=C1/Nc2ccccc2/C1=N\O" : does ΔTm equal or exceed 0.4 °C? class 1

Check the entry "N#C/C(=C(/N)Sc1ccc(N)cc1)c1ccccc1C(F)(F)F" : does ΔTm equal or exceed 0.4 °C? class 0

Check the entry "NS(=O)(=O)c1ccc(Nc2nc(OCC3CCCCC3)c3nc[nH]c3n2)cc1" : does ΔTm equal or exceed 0.4 °C? class 1

Check the entry "Cc1nc(Nc2ncc(C(=O)Nc3c(C)cccc3Cl)s2)cc(N2CCN(CCO)CC2)n1" : does ΔTm equal or exceed 0.4 °C? class 0

Check the entry CN(C)c1ccc(CC2C(=O)Nc3ccccc32)cc1 (configuration not stated) : does ΔTm equal or exceed 0.4 °C? class 1

Check the entry "N#C/C(=C\c1ccc(O)c(O)c1)C(=O)NCc1ccccc1" : does ΔTm equal or exceed 0.4 °C? class 1

Check the entry Cl.Cn1cc(C2=C(c3ccc4cc5n(c4c3)CCC(CN)C5)C(=O)NC2=O)c2ccccc21 (configuration not stated) : does ΔTm equal or exceed 0.4 °C? class 1

Check the entry "CN(C)c1ncnc2nc[nH]c12" : does ΔTm equal or exceed 0.4 °C? class 1

Check the entry "CC(C)n1cnc2/c(=N/c3cccc(Cl)c3)nc(NCCO)[nH]c21" : does ΔTm equal or exceed 0.4 °C? class 1

Check the entry "O=c1c2ccccc2[nH]c(=S)n1CCN1CCC(=C(c2ccc(F)cc2)c2ccc(F)cc2)CC1" : does ΔTm equal or exceed 0.4 °C? class 0

Check the entry "O=C(Nc1cccc(Nc2cc(Nc3cccc(C(F)(F)F)c3)ncn2)c1)C1CC1" : does ΔTm equal or exceed 0.4 °C? class 1
